Items are presented alongside their recorded Percent change in alpha/beta cholesterol ratio versus control.
Species on record: Rattus norvegicus
Assay: Activity to induce the elevation of alpha/beta cholesterol ratio of male Wistar rats
Assay type: functional
Parameters: concentration or dose not given beside the values
Please respond with the number in % and leave the unit unwritten.

compound	unit.label	obs.value
COP(=O)(OC)OC(c1ccccc1)P(=O)(OC)OC (configuration not stated)	%	76
CCCOP(=O)(OCCC)OC(c1ccc(Cl)cc1)P(=O)(OCCC)OCCC (configuration not stated)	%	4
COP(=O)(OC)OC(c1ccc(Cl)cc1)P(=O)(OC)OC (configuration not stated) [MIFOBATE]	%	180
CCOP(=O)(OCC)C(CCc1ccccc1)P(=O)(OCC)OCC	%	74
CCCCOP(=O)(OCCCC)OC(c1ccc(Cl)cc1)P(=O)(OCCCC)OCCCC (configuration not stated)	%	-53
COP(=O)(OC)OC(c1ccc(F)cc1)P(=O)(OC)OC (configuration not stated)	%	81

Problem: Sample "COP(=O)(OC)C(CCCOc1ccccc1)P(=O)(OC)OC" — what was its Percent change in alpha/beta cholesterol ratio versus control?
Result: -13

Problem: Name the reported Percent change in alpha/beta cholesterol ratio versus control value associated with the compound COP(=O)(OC)OC(C(C)(C)Cc1ccc(Cl)cc1)P(=O)(OC)OC (configuration not stated)
Result: -38

Problem: Query (compound): COP(=O)(OC)OC(C(C)(C)c1ccccc1)P(=O)(OC)OC (configuration not stated) ; field requested: Percent change in alpha/beta cholesterol ratio versus control
Result: 25

Problem: Reported Percent change in alpha/beta cholesterol ratio versus control for COP(=O)(OC)OC(c1ccc2ccccc2c1)P(=O)(OC)OC (configuration not stated) : what is it?
Result: 134

Problem: Report Percent change in alpha/beta cholesterol ratio versus control for COP(=O)(OC)OC(C1CCCCC1)P(=O)(OC)OC (configuration not stated) please.
Result: -20

Problem: Tell me the measured Percent change in alpha/beta cholesterol ratio versus control of COP(=O)(OC)OC(C(C)C)P(=O)(OC)OC (configuration not stated) , please.
Result: 38

Problem: Quick one: Percent change in alpha/beta cholesterol ratio versus control for "CCOP(=O)(OCC)C(CCCOc1ccccc1)P(=O)(OCC)OCC" ?
Result: 37

Problem: Item "COP(=O)(OC)C(O)(c1ccc(C)cc1)P(=O)(OC)OC" has what recorded Percent change in alpha/beta cholesterol ratio versus control?
Result: 68

Problem: Given the compound COP(=O)(OC)OC(c1ccc(-c2ccccc2)cc1)P(=O)(OC)OC (configuration not stated) , what is its reported Percent change in alpha/beta cholesterol ratio versus control?
Result: 40

Problem: Which measured Percent change in alpha/beta cholesterol ratio versus control value corresponds to "CC(C)OP(=O)(OC(C)C)C(Cc1ccc(Cl)cc1)P(=O)(OC(C)C)OC(C)C" ?
Result: -1

Problem: // Percent change in alpha/beta cholesterol ratio versus control lookup, key: COP(=O)(OC)OC(c1ccc(C(F)(F)F)cc1)P(=O)(OC)OC (configuration not stated)
Result: 29

Problem: What does the data say about its Percent change in alpha/beta cholesterol ratio versus control? Entry: "COP(=O)(OC)C(O)(C(C)(C)C)P(=O)(OC)OC"
Result: 32

Problem: Which Percent change in alpha/beta cholesterol ratio versus control value is on record for COP(=O)(O)C(CCCc1ccccc1)P(=O)(O)OC (configuration not stated) ?
Result: -23

Problem: Any idea what its Percent change in alpha/beta cholesterol ratio versus control is? The compound is COP(=O)(O)C(Cc1ccc(Cl)cc1)P(=O)(O)OC (configuration not stated)
Result: -20

Problem: For "COP(=O)(OC)C(CCc1ccccc1)P(=O)(OC)OC" , what is its reported Percent change in alpha/beta cholesterol ratio versus control?
Result: 82

Problem: Would you mind telling me what Percent change in alpha/beta cholesterol ratio versus control value was observed for COP(=O)(OC)OC(c1cc(C)ccc1C)P(=O)(OC)OC (configuration not stated) ?
Result: 15

Origin of values: ChEMBL document CHEMBL1123811
